src = ChEMBL document CHEMBL4396893

Target System: Induced myeloid leukemia cell differentiation protein Mcl-1 (Homo sapiens)
Sequence (Q07820 whole entry): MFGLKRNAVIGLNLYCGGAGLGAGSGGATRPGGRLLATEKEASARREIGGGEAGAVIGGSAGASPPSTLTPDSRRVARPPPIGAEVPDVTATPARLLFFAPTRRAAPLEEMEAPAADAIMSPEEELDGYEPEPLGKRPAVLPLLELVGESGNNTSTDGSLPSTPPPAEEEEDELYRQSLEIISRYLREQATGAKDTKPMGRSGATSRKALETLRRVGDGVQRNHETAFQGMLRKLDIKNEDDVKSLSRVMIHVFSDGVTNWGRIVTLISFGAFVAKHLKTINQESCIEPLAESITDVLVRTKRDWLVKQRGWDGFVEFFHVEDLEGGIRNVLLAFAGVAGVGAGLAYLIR
Assay Explanation: Inhibition of GST-tagged MCl-1 (unknown origin) after 3 hrs by pull-down assay
Assay Readout: Ki (µM)

>>> observed_measurement("CC(C)Cc1cc(-c2ccc(-c3ccc(CCC(=O)O)cc3CC(C)C)cc2Cc2ccccc2)ccc1OCC(=O)O")
4.9

* * *

Target System: Bcl-2-like protein 1 (Homo sapiens)
Sequence (Q07817 whole entry): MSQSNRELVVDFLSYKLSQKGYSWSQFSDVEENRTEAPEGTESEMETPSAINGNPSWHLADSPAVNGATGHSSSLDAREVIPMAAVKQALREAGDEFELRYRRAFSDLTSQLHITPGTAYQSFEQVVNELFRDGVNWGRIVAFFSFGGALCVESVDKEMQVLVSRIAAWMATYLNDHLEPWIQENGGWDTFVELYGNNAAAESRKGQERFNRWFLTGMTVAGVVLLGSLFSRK
Assay Explanation: Inhibition of Flu-BakBH3 peptide binding to GST-tagged Bcl-xL (unknown origin) preincubated for 10 mins followed by substrate addition measured after 30 mins by fluorescence polarization assay
Assay Readout: Ki (nM)

>>> observed_measurement("Cc1cc2c(C(=O)Cc3ccccc3)c(O)c(O)cc2c(O)c1-c1c(C)cc2c(C(=O)Cc3ccccc3)c(O)c(O)cc2c1O")
190

* * *

Target System: Induced myeloid leukemia cell differentiation protein Mcl-1 (Homo sapiens)
Assay Explanation: Inhibition of MCl-1 (unknown origin)
pKi: −log10 of the molar value.
Assay Readout: pKi

>>> observed_measurement("CC1=C(C2=C(C)C(=O)c3c(cc(O)c(O)c3Cc3ccccc3)C2=O)C(=O)c2cc(O)c(O)c(Cc3ccccc3)c2C1=O")
7.60
>>> observed_measurement("COC1=CC(c2cc3ccccc3[nH]2)=N/C1=C\\c1[nH]c(C)cc1C [OBATOCLAX]")
5.70
>>> observed_measurement("O=C(c1ccccc1O)c1[nH]c(Cl)c(Cl)c1-n1c(C(=O)c2ccccc2O)cc(Cl)c1Cl")
8.00

* * *

Target System: Bcl-2-like protein 1 (Homo sapiens)
Assay Explanation: Inhibition of Bcl-xL (unknown origin)
Examples of compounds with documented Ki follow.
Assay Readout: Ki (nM)

>>> observed_measurement("CC1=C(C2=C(C)C(=O)c3c(cc(O)c(O)c3Cc3ccccc3)C2=O)C(=O)c2cc(O)c(O)c(Cc3ccccc3)c2C1=O")
76
>>> observed_measurement("COC1=CC(c2cc3ccccc3[nH]2)=N/C1=C\\c1[nH]c(C)cc1C")
4690

* * *

Target System: Apoptosis regulator Bcl-2 (Homo sapiens)
Assay Explanation: Inhibition of Bcl2 (unknown origin)
Examples of compounds with documented Ki follow.
Assay Readout: Ki (nM)

>>> observed_measurement("COC1=CC(c2cc3ccccc3[nH]2)=N/C1=C\\c1[nH]c(C)cc1C")
1110
>>> observed_measurement("Cc1cc2c(C(C)C)c(O)c(O)cc2c(O)c1-c1c(C)cc2c(C(C)C)c(O)c(O)cc2c1O")
640
>>> observed_measurement("CC1=C(C2=C(C)C(=O)c3c(cc(O)c(O)c3Cc3ccccc3)C2=O)C(=O)c2cc(O)c(O)c(Cc3ccccc3)c2C1=O")
31

* * *

Target System: Apoptosis regulator Bcl-2 (Homo sapiens, UniProt P10415)
Sequence (P10415 whole entry): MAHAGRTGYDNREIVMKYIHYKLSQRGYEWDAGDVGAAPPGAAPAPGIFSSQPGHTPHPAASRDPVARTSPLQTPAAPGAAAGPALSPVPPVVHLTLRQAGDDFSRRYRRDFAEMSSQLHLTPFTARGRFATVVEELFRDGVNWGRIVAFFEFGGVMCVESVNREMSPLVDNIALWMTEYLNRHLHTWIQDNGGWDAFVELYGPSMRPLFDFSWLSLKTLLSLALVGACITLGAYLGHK
Assay Explanation: Inhibition of FITC-Ahx-GQVGRQLAIIGDDINR-CONH2 peptide binding to Bcl2 (unknown origin) by fluorescence polarization assay
Assay Readout: Ki (nM)

>>> observed_measurement("CC(C)Oc1cc(C(=O)Nc2ccc(C(=O)Nc3ccc(C(=O)O)cc3OC(C)C)nc2OC(C)C)ccc1N")
179

* * *

Target System: Apoptosis regulator Bcl-2 (Homo sapiens)
Assay Explanation: Inhibition of Flu-BakBH3 peptide binding to GST-tagged Bcl2 (unknown origin) after 2 mins by fluorescence polarization assay
pKi: −log10 of the molar value.
Assay Readout: pKi

>>> observed_measurement("Cc1cc2c(C(=O)Cc3ccccc3)c(O)c(O)cc2c(O)c1-c1c(C)cc2c(C(=O)Cc3ccccc3)c(O)c(O)cc2c1O")
6.44
